Biological target: IRAK4 (Homo sapiens)
Construct: Degradation of IRAK4 in OCI-LY10 was quantitatively measured using Meso Scale Discovery technology; endogenous in cells; host or cells: OCI-LY10
Assay: IRAK4 MSD Degradation in OCI-LY10
Format: cell-based
Conditions: OCI-LY10 cells, 24 hrs incubation, MSD; read-out: IRAK4 degradation in OCI-LY10 at 24 hrs: DC50
Method: Degradation of IRAK4 in OCI-LY10 was quantitatively measured using Meso Scale Discovery technology. […] Compounds were then added to the assay plates with a final top concentration of 1 to 10 μM in a 1:3 dilution series with total of 8 doses. […] The assay plates were then incubated at room temperature for 1 hour, washed 3 times with 150 μL/well TBST buffer, and 150 μL/well MSD reading buffer (Meso Scale Discovery catalog number R92TC-2) was added. […]
DC50 overview

Recorded DC50, per entry:
# COMPOUND, DC50
records = [
    ("C[C@H]1CN(C[C@H]2CC[C@H](n3cc(NC(=O)c4cnn5ccc(N6C[C@H]7C[C@@H]6CO7)nc45)c(C(F)F)n3)CC2)CC[C@@H]1OCC#Cc1ccc2c(N3CCC(=O)NC3=O)cncc2c1 [I-57]", "> 200 nM"),
    ("Cn1c(=O)n(C2CCC(=O)NC2=O)c2cccc(C3CCN(C[C@H]4CC[C@H](n5cc6cc(NC(=O)c7cccc(C(F)(F)F)n7)c(C(F)F)cc6n5)CC4)CC3F)c21 (stereo partly shown) [I-545]", "< 10 nM"),
    ("Cn1c(=O)n(C2CCC(=O)NC2=O)c2cccc(C#CCO[C@@H]3CCN(C[C@H]4CC[C@H](n5cc(NC(=O)c6cnn7ccc(N8CCS(=O)(=O)CC8)nc67)c(C(F)F)n5)CC4)C[C@H]3F)c21 (stereo partly shown) [I-715]", "< 10 nM"),
    ("CN(C[C@H]1CC[C@H](n2cc(NC(=O)c3cnn4ccc(N5C[C@H]6C[C@@H]5CO6)nc34)c(C(F)F)n2)CC1)C1CN(c2cccc3c2n(C)c(=O)n3C2CCC(=O)NC2=O)C1 (stereo partly shown) [I-602]", "> 200 nM"),
    ("Cn1c(=O)n(C2CCC(=O)NC2=O)c2cccc(C#CCOC3CCN(C[C@H]4CC[C@H](n5cc(NC(=O)c6cnn7ccc(N8CCSCC8)nc67)c(C(F)F)n5)CC4)CC3)c21 (stereo partly shown) [I-303]", "< 10 nM"),
]

### Prompt Would you mind telling me what DC50 value was observed for Cn1c(=O)n(C2CCC(=O)NC2=O)c2cccc(N3CCC(OC4CCN(C[C@H]5CC[C@H](n6cc(NC(=O)c7cnn8ccc(N9C[C@H]%10C[C@@H]9CO%10)nc78)c(C(F)F)n6)CC5)CC4)CC3)c21 (stereo partly shown) [I-165] ?
### Response > 200 nM

### Prompt Would you mind telling me what DC50 value was observed for Cn1c(=O)n(C2CCC(=O)NC2=O)c2cccc(C#CCN3CCN(C[C@H]4CC[C@H](n5cc(NC(=O)c6cnn7ccc(N8CC9(CCOCC9)C8)nc67)c(C(F)F)n5)CC4)CC3)c21 (stereo partly shown) [I-316] ?
### Response 10 to 100 nM

### Prompt Would you mind telling me what DC50 value was observed for O=C1CCN(c2cncc3cc(N4CCN(C5CCN(C[C@H]6CC[C@H](n7cc(NC(=O)c8cnn9ccc(N%10C[C@H]%11C[C@@H]%10CO%11)nc89)c(C(F)F)n7)CC6)CC5)CC4)ccc23)C(=O)N1 [I-77] ?
### Response > 200 nM

### Prompt Would you mind telling me what DC50 value was observed for Cn1c(=O)n(C2CCC(=O)NC2=O)c2cccc(C#CCOC3CCN(C[C@H]4CC[C@H](n5cc(NC(=O)c6cnn7ccc(N8CCC(F)(F)CC8)nc67)c(C(F)F)n5)CC4)CC3)c21 (stereo partly shown) [I-433] ?
### Response < 10 nM

### Prompt Would you mind telling me what DC50 value was observed for Cn1c(=O)n(C2CCC(=O)NC2=O)c2cccc(C#CCOC3CCN(C[C@H]4CC[C@H](n5cc(NC(=O)c6cnn7ccc(N8CCS(=O)(=O)CC8)nc67)c(C(F)F)n5)CC4)CC3)c21 (stereo partly shown) [I-304] ?
### Response < 10 nM

----------
Target: IRAK4 (Homo sapiens, UniProt Q9NWZ3)
Construct: Degradation of IRAK4 in OCI-LY10 was quantitatively measured using Meso Scale Discovery technology; endogenous in cells; host or cells: OCI-LY10
Assay: IRAK4 MSD Degradation in OCI-LY10
Assay type: cell-based
Conditions: OCI-LY10 cells, 4 hrs incubation, MSD; read-out: IRAK4 degradation in OCI-LY10 at 4 hrs: DC50
DC50 overview

Recorded DC50, per entry:
# MOLECULE, DC50
records = [
    ("CN(c1cccc2c1n(C)c(=O)n2C1CCC(=O)NC1=O)C1CN(C[C@H]2CC[C@H](n3cc(NC(=O)c4cnn5ccc(N6C[C@H]7C[C@@H]6CO7)nc45)c(C(F)F)n3)CC2)C1 (some centres unmarked)", "> 200 nM"),
    ("Cc1ccc(-c2nn([C@H]3CC[C@H](CN4CCN(CC#Cc5cccc6c5n(C)c(=O)n6C5CCC(=O)NC5=O)CC4)CC3)cc2NC(=O)c2cnn3cccnc23)c(F)c1 (some centres unmarked)", "> 200 nM"),
    ("COc1cc2nn([C@H]3CC[C@H](CN4CCC5(CC4)CCN(c4c(OC)ccc6c4n(C)c(=O)n6C4CCC(=O)NC4=O)CC5)CC3)cc2cc1NC(=O)c1cncc(C#N)c1 (some centres unmarked)", "< 10 nM"),
    ("Cn1c(=O)n(C2CCC(=O)NC2=O)c2cccc(C#CCN3CCN(C[C@H]4CC[C@H](n5cc(NC(=O)c6cnn7ccc(N8CCN(C(F)(F)F)CC8)nc67)c(C(F)F)n5)CC4)CC3)c21 (some centres unmarked)", "> 200 nM"),
    ("Cn1c(=O)n(C2CCC(=O)NC2=O)c2cccc(C#CCN3CCN(C[C@H]4CC[C@H](n5cc(NC(=O)c6cnn7ccc(N8C[C@H]9CC[C@@H](C8)O9)nc67)c(C(F)F)n5)CC4)CC3)c21 (some centres unmarked)", "> 200 nM"),
]

### Prompt Would you mind telling me what DC50 value was observed for Cn1c(=O)n(C2CCC(=O)NC2=O)c2cccc(C3=CCN(C[C@H]4CC[C@H](n5cc6cc(NC(=O)c7cccc(C(F)(F)F)n7)c(C#N)cc6n5)CC4)CC3F)c21 (some centres unmarked) [I-458] ?
### Response > 200 nM

### Prompt Would you mind telling me what DC50 value was observed for Cn1c(=O)n(C2CCC(=O)NC2=O)c2cccc(C#CCN3CCN(C[C@H]4CC[C@H](n5cc(NC(=O)c6cnn7ccc(N8CC9CC(C8)O9)nc67)c(C(F)F)n5)CC4)CC3)c21 (some centres unmarked) ?
### Response > 200 nM

### Prompt Would you mind telling me what DC50 value was observed for Cn1c(=O)n(C2CCC(=O)NC2=O)c2cccc(CC[C@@H]3CN(C[C@H]4CC[C@H](n5cc(NC(=O)c6cnn7cccnc67)c(C(F)F)n5)CC4)CCO3)c21 (some centres unmarked) ?
### Response > 200 nM

----------
DC50 overview
Biological target: IRAK4 (Homo sapiens)
Construct: Degradation of IRAK4 in OCI-LY10 was quantitatively measured using Meso Scale Discovery technology; endogenous in cells; host or cells: OCI-LY10
Sequence (Q9NWZ3 1-460): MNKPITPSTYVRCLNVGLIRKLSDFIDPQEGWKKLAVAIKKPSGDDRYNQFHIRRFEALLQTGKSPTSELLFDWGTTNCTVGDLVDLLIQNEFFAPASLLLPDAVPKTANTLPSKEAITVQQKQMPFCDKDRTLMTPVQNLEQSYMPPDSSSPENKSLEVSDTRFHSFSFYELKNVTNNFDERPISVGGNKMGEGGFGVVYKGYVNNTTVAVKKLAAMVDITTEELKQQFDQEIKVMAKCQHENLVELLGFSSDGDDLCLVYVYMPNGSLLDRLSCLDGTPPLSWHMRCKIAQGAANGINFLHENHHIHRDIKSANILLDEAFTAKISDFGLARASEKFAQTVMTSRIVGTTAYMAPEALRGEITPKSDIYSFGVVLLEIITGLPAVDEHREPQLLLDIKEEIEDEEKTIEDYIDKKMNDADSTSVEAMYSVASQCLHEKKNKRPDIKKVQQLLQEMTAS
Experiment: IRAK4 MSD Degradation in OCI-LY10
Assay type: cell-based
Conditions: OCI-LY10 cells, 24 hrs incubation, MSD; read-out: IRAK4 degradation in OCI-LY10 at 24 hrs: DC50

### Prompt Would you mind telling me what DC50 value was observed for Cn1c(=O)n(C2CCC(=O)NC2=O)c2cccc([C@H]3CCN(C[C@H]4CC[C@H](n5cc6cc(NC(=O)c7cccc(C(F)F)n7)c(C(C)(C)O)cc6n5)CC4)C[C@@H]3F)c21 (stereo partly shown) ?
### Response > 0.2 µM

### Prompt Would you mind telling me what DC50 value was observed for Cn1c(=O)n(C2CCC(=O)NC2=O)c2cccc(C#CCN3CCN(C[C@H]4CC[C@H](n5cc(NC(=O)c6cnn7ccc([C@H]8CCOC8)nc67)c(C(F)F)n5)CC4)CC3)c21 (stereo partly shown) ?
### Response > 0.2 µM

### Prompt Would you mind telling me what DC50 value was observed for CC1CN(c2ccn3ncc(C(=O)Nc4cn([C@H]5CC[C@H](CN6CCN(CC#Cc7cccc8c7n(C)c(=O)n8C7CCC(=O)NC7=O)CC6)CC5)nc4C(F)F)c3n2)CC(C)O1 (stereo partly shown) ?
### Response > 0.2 µM

### Prompt Would you mind telling me what DC50 value was observed for COc1cc2nn([C@H]3CC[C@H](CN4CCC5(CC4)CCN(c4cccc6c4n(C)c(=O)n6C4CCC(=O)NC4=O)CC5)CC3)cc2cc1NC(=O)c1nn(C)cc1Cl (stereo partly shown) ?
### Response > 0.2 µM

### Prompt Would you mind telling me what DC50 value was observed for Cn1c(=O)n(C2CCC(=O)NC2=O)c2cccc(N3CC(N4CCN([C@H]5CC[C@H](n6cc(NC(=O)c7cnn8ccc(N9C[C@H]%10C[C@@H]9CO%10)nc78)c(C(F)F)n6)CC5)CC4)C3)c21 (stereo partly shown) ?
### Response < 0.01 µM

### Prompt Would you mind telling me what DC50 value was observed for Cn1c(=O)n(C2CCC(=O)NC2=O)c2ccnc(N3CCN([C@H]4CCN(C[C@H]5CC[C@H](n6cc(NC(=O)c7cnn8ccc(N9C[C@H]%10C[C@@H]9CO%10)nc78)c(C(F)F)n6)CC5)CC4(F)F)CC3)c21 (stereo partly shown) ?
### Response < 0.01 µM

### Prompt Would you mind telling me what DC50 value was observed for Cn1c(=O)n(C2CCC(=O)NC2=O)c2cccc(N3CCN([C@@H]4CCN(C[C@H]5CC[C@H](n6cc(NC(=O)c7cnn8ccc(N9C[C@H]%10C[C@@H]9CO%10)nc78)c(C(F)F)n6)CC5)C[C@H]4F)CC3)c21 (stereo partly shown) ?
### Response < 0.01 µM

### Prompt Would you mind telling me what DC50 value was observed for Cn1c(=O)n(C2CCC(=O)NC2=O)c2cccc(C3CCN(CC4CCC(n5cc6cc(NC(=O)c7cnn8ccc(N9CC%10CC9CO%10)cc78)ncc6n5)CC4)CC3(F)F)c21 (stereo not shown) ?
### Response < 0.01 µM

### Prompt Would you mind telling me what DC50 value was observed for O=C1CCC(c2cc(C#CCN3CCN(C[C@H]4CC[C@@H](n5cc(NC(=O)c6cnn7ccc(N8C[C@H]9C[C@@H]8CO9)nc67)c(C(F)F)n5)CC4)CC3)ccc2Cl)C(=O)N1 (stereo partly shown) ?
### Response > 0.2 µM

### Prompt Would you mind telling me what DC50 value was observed for O=C1CCC(c2cncc3c(C#CCN4CCN(C[C@H]5CC[C@@H](n6cc(NC(=O)c7cnn8ccc(N9C[C@H]%10C[C@@H]9CO%10)nc78)c(C(F)F)n6)CC5)CC4)cccc23)C(=O)N1 (stereo partly shown) ?
### Response > 0.2 µM

Where do the numbers come from? From patent US12091411B2.
